- Target Or Test System: T1, human E-selectin extracellular domain with 10 His purification tail (human, UniProt P16581 22-556)
- T1 construct: also called soluable human E-selectin extracellular domain; rhE-Selectin
- T1 sequence: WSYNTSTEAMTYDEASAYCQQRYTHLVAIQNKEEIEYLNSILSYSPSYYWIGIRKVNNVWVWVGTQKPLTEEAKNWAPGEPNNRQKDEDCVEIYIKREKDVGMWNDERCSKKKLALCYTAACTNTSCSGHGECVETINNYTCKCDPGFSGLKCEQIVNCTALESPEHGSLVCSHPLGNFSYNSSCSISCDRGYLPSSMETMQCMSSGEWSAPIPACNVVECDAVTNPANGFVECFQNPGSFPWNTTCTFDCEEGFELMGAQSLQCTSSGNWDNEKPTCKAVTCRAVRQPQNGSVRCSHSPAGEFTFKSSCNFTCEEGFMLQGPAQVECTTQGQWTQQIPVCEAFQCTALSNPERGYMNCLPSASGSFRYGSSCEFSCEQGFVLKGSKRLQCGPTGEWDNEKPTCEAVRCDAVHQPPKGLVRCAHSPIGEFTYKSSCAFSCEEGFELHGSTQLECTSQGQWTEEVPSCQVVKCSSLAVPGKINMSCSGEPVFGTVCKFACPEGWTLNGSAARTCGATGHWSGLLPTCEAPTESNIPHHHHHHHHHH
- Assay Remarks: AlphaLISA competition vs sialyl Lewis A-PAA-biotin
pEC50: −log10 of the molar value.
Reported pEC50 values are given for each entry in this list.

Would you please look over these solved cases?
# Binder, pEC50
data = [
    ("anti-E-selectin antibody 0158 chimera (antibody, human IgG1, kappa, V domains shown, rat VH/VL on effector-null human IgG1 and human kappa) VH: QVQLKESGPGLVQPSETLSLTCTVSGFSISTYNVHWLRQPPGKGLEWMGMMWSGGSPDYNSALKSRLSISRDTSKNQVFLKMNSLQSEDTTTYYCARWGGGFDYWGQGVMVTVSS VL: DIVLTQSPTTLSVTPGETVSLSCRASHSIGTNLHWYQQKTNESPRLLIKFTSQSISGIPSRFSASGSGTDFTLNINNVEFDDVSSYFCQQTQSWPLTFGSGTKLEIKR", "> 9.00"),
    ("anti-E-selectin antibody 0180 chimera (antibody, human IgG1, kappa, V domains shown, rat VH/VL on effector-null human IgG1 and human kappa) VH: EVQLQQSGAELGKPGTSVKLSCKVSGYKIRSSYMHWVNQRPGKGLEWIGRIDPANGNTIYGDKFKSKATLTSDTSSNTAYIQLSQLKSDDTAIYFCAIDIGTTFDYWGQGVMVTVSS VL: DIQMTQSPSFLSASVGDRVTINCKASQHINRYLNWYQQKLGEAPKLLIYDANNLQTGIPSRFSGSGSGTDFTLTISSLQPEDVATYFCLQHNSWPNTFGAGTKLELKR", "> 9.00"),
]

Q) Quick one: pEC50 for anti-E-selectin antibody 0164 chimera (antibody, human IgG1, kappa, V domains shown, rat VH/VL on effector-null human IgG1 and human kappa) VH: EVQLQQSGAEFGKPGTSVKLSCKVSGYNIRSSYMHWVNQRPGKGLEWIGRIDPANGNTIYAEKFKIKAILTADSSSNTAYMQLSQLKSDDTAIYFCAMDLYSTSEYWGQGVMVTVSS VL: DIQMTQSPSFLSASVGDRVTINCKTSQNINRYLNWYQQKLGEAPKLLIYNANSLQTGIPSRFSASGSGTDFTLTINSLQPEDVATYFCLQDNSWPLTFGSGTKLEIKR ?
A) > 9.00
